Molecular target: Cytochrome P450 1A2 (Homo sapiens)
Sequence (P05177 whole entry): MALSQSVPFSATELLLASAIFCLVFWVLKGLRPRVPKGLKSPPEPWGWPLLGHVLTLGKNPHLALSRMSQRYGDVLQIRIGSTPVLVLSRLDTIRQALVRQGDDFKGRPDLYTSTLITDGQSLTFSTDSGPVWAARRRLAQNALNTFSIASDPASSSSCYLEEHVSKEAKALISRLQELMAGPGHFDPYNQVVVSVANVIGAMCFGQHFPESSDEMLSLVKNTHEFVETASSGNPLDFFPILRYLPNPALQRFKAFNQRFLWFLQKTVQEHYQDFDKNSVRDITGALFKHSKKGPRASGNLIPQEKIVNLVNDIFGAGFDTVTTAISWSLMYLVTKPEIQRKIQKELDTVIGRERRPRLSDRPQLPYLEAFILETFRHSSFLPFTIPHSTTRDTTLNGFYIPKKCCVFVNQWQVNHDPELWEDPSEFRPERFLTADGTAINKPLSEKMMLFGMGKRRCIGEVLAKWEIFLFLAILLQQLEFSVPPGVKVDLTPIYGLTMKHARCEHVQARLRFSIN
pIC50: −log10 of the molar value.
value_kind: pIC50

Input line: For the compound shown here, C[C@@]1(O)CC[C@H]2[C@H](CC[C@@H]3[C@@H]2CC[C@]2(C)[C@@H](C(=O)Cn4cc(C#N)cn4)CC[C@@H]32)C1 , give the reported pIC50.
Output line: < 4.52

* * *

molecular target: Inward rectifier potassium channel 2 (Homo sapiens); test: Inhibition of Kir2.1 (unknown origin) by patch clamp assay
Sequence (P63252 whole entry): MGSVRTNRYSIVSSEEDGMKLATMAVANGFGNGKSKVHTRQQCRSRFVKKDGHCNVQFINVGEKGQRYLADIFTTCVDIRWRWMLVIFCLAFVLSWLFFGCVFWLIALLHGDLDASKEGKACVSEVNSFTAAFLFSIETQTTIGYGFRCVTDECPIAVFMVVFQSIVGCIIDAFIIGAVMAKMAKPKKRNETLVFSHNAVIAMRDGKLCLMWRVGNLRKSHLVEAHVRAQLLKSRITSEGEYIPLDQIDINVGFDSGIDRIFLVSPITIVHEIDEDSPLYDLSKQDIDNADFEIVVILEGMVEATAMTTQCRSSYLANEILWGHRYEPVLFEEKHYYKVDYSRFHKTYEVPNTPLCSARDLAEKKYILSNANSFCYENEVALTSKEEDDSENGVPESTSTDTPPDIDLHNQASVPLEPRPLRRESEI
value_kind: IC50

Input line: Recorded IC50 of C[C@@]1(O)CC[C@H]2[C@H](CC[C@@H]3[C@@H]2CC[C@]2(C)[C@@H](C(=O)Cn4cc(C#N)cn4)CC[C@@H]32)C1 [ZURANOLONE] , please.
Output line: > 30 µM

* * *

experiment: Clearance in rat hepatic microsomes at 10 uM preincubated for 5 mins followed by NADPH addition measured over 60 mins by HPLC-MS/MS analysis; format: ADME, Microsome; settings: liver microsomes
value_kind: CLhep predicted at 10 µM (L/h/kg)
The reply should contain only the number, in L/h/kg.

Solved cases (2 shown):
C[C@@]1(O)CC[C@H]2[C@H](CC[C@@H]3[C@@H]2CC[C@]2(C)[C@@H](C(=O)Cn4ccc(C#N)n4)CC[C@@H]32)C1: 2.5
C[C@@]1(O)CC[C@H]2[C@H](CC[C@@H]3[C@@H]2CC[C@]2(C)[C@@H](C(=O)Cn4nccn4)CC[C@@H]32)C1: 2.7

Okay, now this compound:
Input line: What does the data say about its CLhep predicted at 10 µM? Entry: CC(=O)[C@H]1CC[C@H]2[C@@H]3CC[C@H]4C[C@H](O)CC[C@]4(C)[C@H]3CC[C@]12C
Output line: 3.3

* * *

assay: Oral bioavailability in Beagle dog at 20 mg/kg measured up to 8 hrs post dose by LC/MS-MS analysis; type: ADME, organism-based, Canis lupus familiaris; details: in vivo
value_kind: bioavailability (%)
Give the number; % is assumed, so skip it.

Input line: Quick one: bioavailability of C[C@@]1(O)CC[C@H]2[C@H](CC[C@@H]3[C@@H]2CC[C@]2(C)[C@@H](C(=O)Cn4cc(C#N)cn4)CC[C@@H]32)C1 ?
Output line: 68

* * *

target: Gamma-aminobutyric acid receptor subunit alpha-4/beta3/delta (Homo sapiens, UniProt O14764+P28472+P48169); assay: Positive allosteric modulation of GABAA receptor alpha4beta3delta (unknown origin) expressed in CHO cells assessed as potentiation of GABA-mediated increase in channel current under holding potential at -80 mV preincubated for 30 secs followed by GABA stimulation for 2 secs by manual patch clamp assay
Sequence (P28472 whole entry): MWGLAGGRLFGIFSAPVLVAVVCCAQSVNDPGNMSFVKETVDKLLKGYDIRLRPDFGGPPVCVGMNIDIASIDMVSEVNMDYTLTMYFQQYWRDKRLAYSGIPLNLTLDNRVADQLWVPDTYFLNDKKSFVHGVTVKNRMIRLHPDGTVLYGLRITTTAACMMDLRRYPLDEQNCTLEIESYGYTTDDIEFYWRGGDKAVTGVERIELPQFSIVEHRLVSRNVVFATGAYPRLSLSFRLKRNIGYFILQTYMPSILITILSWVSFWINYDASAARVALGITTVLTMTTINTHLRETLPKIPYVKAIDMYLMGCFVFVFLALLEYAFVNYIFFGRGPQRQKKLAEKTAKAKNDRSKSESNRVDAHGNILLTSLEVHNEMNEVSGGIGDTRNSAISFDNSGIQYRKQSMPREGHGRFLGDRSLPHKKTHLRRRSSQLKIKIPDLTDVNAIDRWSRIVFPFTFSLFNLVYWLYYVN
Sequence (P48169 whole entry): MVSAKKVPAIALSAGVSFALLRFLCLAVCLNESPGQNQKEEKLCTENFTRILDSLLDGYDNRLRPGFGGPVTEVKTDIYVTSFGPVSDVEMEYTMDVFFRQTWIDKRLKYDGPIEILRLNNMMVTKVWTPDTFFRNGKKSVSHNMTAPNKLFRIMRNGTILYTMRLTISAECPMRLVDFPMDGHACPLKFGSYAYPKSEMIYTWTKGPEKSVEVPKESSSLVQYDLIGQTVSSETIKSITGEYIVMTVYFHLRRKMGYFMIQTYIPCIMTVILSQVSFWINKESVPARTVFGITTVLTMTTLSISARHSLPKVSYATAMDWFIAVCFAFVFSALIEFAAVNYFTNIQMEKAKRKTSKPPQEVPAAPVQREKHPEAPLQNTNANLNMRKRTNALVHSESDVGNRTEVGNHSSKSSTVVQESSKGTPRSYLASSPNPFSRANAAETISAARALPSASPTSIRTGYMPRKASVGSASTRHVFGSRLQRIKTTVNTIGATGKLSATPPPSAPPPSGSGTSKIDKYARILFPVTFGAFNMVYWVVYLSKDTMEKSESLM
Sequence (O14764 whole entry): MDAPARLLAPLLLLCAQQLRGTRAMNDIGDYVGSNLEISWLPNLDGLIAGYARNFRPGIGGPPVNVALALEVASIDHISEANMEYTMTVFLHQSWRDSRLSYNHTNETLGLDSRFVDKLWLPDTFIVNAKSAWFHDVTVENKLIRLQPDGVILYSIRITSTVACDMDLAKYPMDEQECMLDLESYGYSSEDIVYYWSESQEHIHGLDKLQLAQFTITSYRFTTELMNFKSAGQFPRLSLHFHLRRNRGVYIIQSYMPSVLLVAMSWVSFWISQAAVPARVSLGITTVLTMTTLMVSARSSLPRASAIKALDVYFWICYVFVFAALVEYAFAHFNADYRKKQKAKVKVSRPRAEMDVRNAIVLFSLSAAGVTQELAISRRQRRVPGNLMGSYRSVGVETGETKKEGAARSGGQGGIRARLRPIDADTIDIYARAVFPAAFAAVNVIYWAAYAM
A collection of compounds and their measured EC50
Give the quantity in nM, number only.

Below, 4 compounds whose answers are already recorded.
COC[C@@]1(O)CC[C@H]2[C@H](CC[C@@H]3[C@@H]2CC[C@]2(C)[C@@H](C(=O)Cn4cc(C#N)cn4)CC[C@@H]32)C1: 577
C[C@@]1(O)CC[C@H]2[C@H](CC[C@@H]3[C@@H]2CC[C@]2(C)[C@@H](C(=O)Cn4cc(Cl)cn4)CC[C@@H]32)C1: 744
Cc1cnn(CC(=O)[C@H]2CC[C@H]3[C@@H]4CC[C@@H]5C[C@](C)(O)CC[C@@H]5[C@H]4CC[C@]23C)n1: 192
Cc1cnn(CC(=O)[C@H]2CC[C@H]3[C@@H]4CC[C@@H]5C[C@](C)(O)CC[C@@H]5[C@H]4CC[C@]23C)c1: 1360

Input line: Look up EC50 for this compound: C[C@@]1(O)CC[C@H]2[C@H](CC[C@@H]3[C@@H]2CC[C@]2(C)[C@@H](C(=O)Cn4ccc(C#N)n4)CC[C@@H]32)C1
Output line: 110

Input line: Requested field: EC50. Item: C[C@@]1(O)CC[C@H]2[C@H](CC[C@@H]3[C@@H]2CC[C@]2(C)[C@@H](C(=O)Cn4cccn4)CC[C@@H]32)C1
Output line: 1240

Input line: Fill in the blank: the reported EC50 of C[C@@]1(O)CC[C@H]2[C@H](CC[C@@H]3[C@@H]2CC[C@]2(C)[C@@H](C(=O)Cn4cc(C(F)(F)F)cn4)CC[C@@H]32)C1 is ____.
Output line: 1600

Input line: Consider the compound C[C@@]1(O)CC[C@H]2[C@H](CC[C@@H]3[C@@H]2CC[C@]2(C)[C@@H](C(=O)Cn4nccn4)CC[C@@H]32)C1 and give its measured EC50.
Output line: 240

Input line: Return reported EC50; argument: C[C@@]1(O)CC[C@H]2[C@H](CC[C@@H]3[C@@H]2CC[C@]2(C)[C@@H](C(=O)Cn4cc(C#N)cn4)CC[C@@H]32)C1
Output line: 299

Input line: So what does the record say about EC50 for COc1cnn(CC(=O)[C@H]2CC[C@H]3[C@@H]4CC[C@@H]5C[C@](C)(O)CC[C@@H]5[C@H]4CC[C@]23C)c1 ?
Output line: 2050

Input line: Please give the measured EC50 for this compound: Cc1cnnn1CC(=O)[C@H]1CC[C@H]2[C@@H]3CC[C@@H]4C[C@](C)(O)CC[C@@H]4[C@H]3CC[C@]12C
Output line: 2010

Input line: Param item = CC(=O)[C@H]1CC[C@H]2[C@@H]3CC[C@H]4C[C@H](O)CC[C@]4(C)[C@H]3CC[C@]12C ; retrieve measured EC50.
Output line: 75.5

* * *

assay: Protein binding in human plasma at 10 uM after 6 hrs by equilibrium dialysis; type: ADME, cell-free; settings: read-out: PPB (converted)
value_kind: fraction unbound at 6 h, 10 µM
Form rule: numeric answer, no unit written next to it.

Input line: For the compound shown here, C[C@@]1(O)CC[C@H]2[C@H](CC[C@@H]3[C@@H]2CC[C@]2(C)[C@@H](C(=O)Cn4cc(C#N)cn4)CC[C@@H]32)C1 , give the reported fraction unbound at 6 h, 10 µM.
Output line: 0.012

* * *

target: GABA-A receptor; alpha-1/beta-2/gamma-2 (Homo sapiens, UniProt P14867+P18507+P47870); assay: Positive allosteric modulation of GABAA receptor alpha1beta2gamma2 (unknown origin) expressed in mouse LTK cells assessed as potentiation of GABA-mediated increase in channel current under holding potential at -80 mV preincubated for 30 secs followed by GABA stimulation for 2 secs by automated patch clamp assay
Sequence (P14867 whole entry): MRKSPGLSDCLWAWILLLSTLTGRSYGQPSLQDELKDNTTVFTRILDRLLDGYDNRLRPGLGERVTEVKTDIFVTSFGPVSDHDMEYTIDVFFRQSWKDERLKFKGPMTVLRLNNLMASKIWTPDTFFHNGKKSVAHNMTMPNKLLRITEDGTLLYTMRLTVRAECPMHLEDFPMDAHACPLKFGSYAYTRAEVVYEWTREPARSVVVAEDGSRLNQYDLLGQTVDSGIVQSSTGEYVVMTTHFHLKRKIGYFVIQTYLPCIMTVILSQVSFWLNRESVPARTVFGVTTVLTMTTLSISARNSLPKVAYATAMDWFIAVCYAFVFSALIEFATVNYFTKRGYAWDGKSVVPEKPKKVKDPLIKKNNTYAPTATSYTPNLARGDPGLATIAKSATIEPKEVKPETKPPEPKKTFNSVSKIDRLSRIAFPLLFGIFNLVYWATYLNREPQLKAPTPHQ
Sequence (P47870 whole entry): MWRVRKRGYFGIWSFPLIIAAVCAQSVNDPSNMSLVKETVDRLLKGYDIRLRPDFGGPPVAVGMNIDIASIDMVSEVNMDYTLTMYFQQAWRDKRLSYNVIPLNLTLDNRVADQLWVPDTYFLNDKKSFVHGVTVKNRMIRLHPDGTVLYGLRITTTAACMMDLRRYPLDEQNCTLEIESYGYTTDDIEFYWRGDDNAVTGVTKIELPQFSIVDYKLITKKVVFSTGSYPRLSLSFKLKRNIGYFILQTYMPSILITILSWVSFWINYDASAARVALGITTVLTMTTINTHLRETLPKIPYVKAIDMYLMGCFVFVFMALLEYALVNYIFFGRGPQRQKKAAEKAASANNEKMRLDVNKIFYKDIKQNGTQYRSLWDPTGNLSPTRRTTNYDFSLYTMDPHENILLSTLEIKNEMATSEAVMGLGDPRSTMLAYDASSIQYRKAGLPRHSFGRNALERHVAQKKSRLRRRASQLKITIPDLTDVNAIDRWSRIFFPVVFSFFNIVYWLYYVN
Sequence (P18507 whole entry): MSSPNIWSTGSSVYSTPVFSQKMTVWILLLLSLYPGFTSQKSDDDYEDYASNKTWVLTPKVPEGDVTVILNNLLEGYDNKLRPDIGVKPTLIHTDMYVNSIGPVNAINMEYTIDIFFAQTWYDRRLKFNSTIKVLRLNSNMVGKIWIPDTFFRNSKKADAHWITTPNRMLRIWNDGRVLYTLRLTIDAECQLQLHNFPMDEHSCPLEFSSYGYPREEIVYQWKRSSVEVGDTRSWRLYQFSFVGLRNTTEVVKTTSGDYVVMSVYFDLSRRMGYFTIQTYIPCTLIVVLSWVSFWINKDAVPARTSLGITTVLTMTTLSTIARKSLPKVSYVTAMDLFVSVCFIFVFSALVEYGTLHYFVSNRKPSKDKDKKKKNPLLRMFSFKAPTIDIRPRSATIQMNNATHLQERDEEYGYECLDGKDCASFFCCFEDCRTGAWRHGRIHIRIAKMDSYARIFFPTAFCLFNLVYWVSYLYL
Reported values of EC50 for individual entries
Report as a plain number; the unit µM is understood.

Example results:
Cc1cnn(CC(=O)[C@H]2CC[C@H]3[C@@H]4CC[C@@H]5C[C@](C)(O)CC[C@@H]5[C@H]4CC[C@]23C)c1: 0.291
COc1cnn(CC(=O)[C@H]2CC[C@H]3[C@@H]4CC[C@@H]5C[C@](C)(O)CC[C@@H]5[C@H]4CC[C@]23C)c1: 1.76
C[C@@]1(O)CC[C@H]2[C@H](CC[C@@H]3[C@@H]2CC[C@]2(C)[C@@H](C(=O)Cn4nccn4)CC[C@@H]32)C1: 0.125

Input line: // returns reported EC50 for input CC(=O)[C@H]1CC[C@H]2[C@@H]3CC[C@H]4C[C@H](O)CC[C@]4(C)[C@H]3CC[C@]12C [BREXANOLONE]
Output line: 0.237

Input line: Consider the compound C[C@@]1(O)CC[C@H]2[C@H](CC[C@@H]3[C@@H]2CC[C@]2(C)[C@@H](C(=O)Cn4cc([N+](=O)[O-])cn4)CC[C@@H]32)C1 and give its measured EC50.
Output line: 1.16

Input line: Given the compound C[C@@]1(O)CC[C@H]2[C@H](CC[C@@H]3[C@@H]2CC[C@]2(C)[C@@H](C(=O)Cn4cc(C(F)(F)F)cn4)CC[C@@H]32)C1 , what is its reported EC50?
Output line: 1.05

Input line: Using the record for Cc1cnnn1CC(=O)[C@H]1CC[C@H]2[C@@H]3CC[C@@H]4C[C@](C)(O)CC[C@@H]4[C@H]3CC[C@]12C , report its EC50.
Output line: 1.6
